# system-under-test: T1, human VEGF165 (human, UniProt P15692)
# T1 chain: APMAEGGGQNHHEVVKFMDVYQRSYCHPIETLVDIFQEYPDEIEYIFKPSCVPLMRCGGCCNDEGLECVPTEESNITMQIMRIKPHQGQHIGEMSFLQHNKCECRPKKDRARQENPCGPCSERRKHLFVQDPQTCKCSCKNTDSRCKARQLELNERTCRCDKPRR
# test-method-notes: SPR, pH 5
value-type: Kd
Write the numeric value and follow it with the unit.

Incoming: What value of Kd has been recorded for this entry: 578-max-min (902) (antibody, V domains shown) VH: EVQLVESGGGLVQPGGSLRLSCAASGFSLTDYYYMTWVRQAPGKGLEWVSFIDPDDDPYYATWAKGRFTISRDNSKNTLYLQMNSLRAEDTAVYYCAKGDHNSGWGLDIWGQGTLVTVSS VL: EIVMTQSPSTLSASVGDRVIITCQASEIIHSWLAWYQQKPGKAPKLLIYLASTLASGVPSRFSGSGSGTQFTLTISSLQPDDFATYYCQNVYLASTNGANFGQGTKLTVLG
Outgoing: 6.55 nM
